assayed_target: S. aureus TrmD (Staphylococcus aureus, UniProt Q2FZ43)
Construct: made in house; host or cells: E. coli BL21
test_method_notes: nanoSAR direct-to-biology FP displacement screening of crude triazoles
Assay type: binding
measurement_conditions: crude triazole at 1 μM, assuming full conversion; 500 nM TrmD, 10 nM tracer 4; read-out: % displaced tracer
inhibition at 1 µM vs 20%: at or above is rule met, below is rule not met.

# compound, class_name
data = [
    ("CCN(CC)CCn1cc(-c2c[nH]c3nc[nH]c(=O)c23)nn1 [Compound 01H09]", "rule met"),
    ("N[C@]12CC[C@](n3cc(-c4c[nH]c5nc[nH]c(=O)c45)nn3)(CC1)C2 [Compound 02D10]", "rule not met"),
    ("CC(C)NC(=O)[C@H](C)n1cc(-c2c[nH]c3nc[nH]c(=O)c23)nn1 [Compound 03H02]", "rule not met"),
    ("COCCn1cc(-c2c[nH]c3nc[nH]c(=O)c23)nn1 [Compound 03C11, O=C1NC=NC=2NC=C(C=3N=NN(C3)CCOC)C12]", "rule met"),
    ("Nc1ccc(-n2cc(-c3c[nH]c4nc[nH]c(=O)c34)nn2)cc1 [Compound 03D05]", "rule not met"),
    ("COC(=O)c1cncc(-n2cc(-c3c[nH]c4nc[nH]c(=O)c34)nn2)c1 [Compound 02F05]", "rule not met"),
    ("O=c1[nH]cnc2[nH]cc(-c3cn(-c4cccc5c4CCCC5)nn3)c12 [Compound 02A11]", "rule not met"),
    ("CN(C)CCCn1cc(-c2c[nH]c3nc[nH]c(=O)c23)nn1 [Compound 01E08]", "rule met"),
    ("O=c1[nH]cnc2[nH]cc(-c3cn(CCCN4CCCOCC4)nn3)c12 [Compound 02A10]", "rule met"),
    ("CC(F)(F)c1cccc(Cn2cc(-c3c[nH]c4nc[nH]c(=O)c34)nn2)n1 [Compound 01H01]", "rule met"),
    ("CN(C)c1cccc(OCCCn2cc(-c3c[nH]c4nc[nH]c(=O)c34)nn2)c1 [Compound 03E12]", "rule met"),
    ("NC[C@H]1CCC[C@@H](Cn2cc(-c3c[nH]c4nc[nH]c(=O)c34)nn2)C1 [Compound 02A02]", "rule met"),
    ("COc1cccc(OC)c1Cn1cc(-c2c[nH]c3nc[nH]c(=O)c23)nn1 [Compound 02D12]", "rule not met"),
    ("C[C@@H](c1cnnn1C)n1cc(-c2c[nH]c3nc[nH]c(=O)c23)nn1 [Compound 01C01]", "rule met"),
    ("O=c1[nH]cnc2[nH]cc(-c3cn(-c4ccc(CCO)cc4)nn3)c12 [Compound 02G03]", "rule not met"),
    ("CCOP(=O)(CCCn1cc(-c2c[nH]c3nc[nH]c(=O)c23)nn1)OCC [Compound 01H12]", "rule met"),
    ("O=c1[nH]cnc2[nH]cc(-c3cn(Cc4cc(=O)n5nccc5[nH]4)nn3)c12 [Compound 02A09]", "rule not met"),
    ("O=c1[nH]cnc2[nH]cc(-c3cn(CCP(=O)(O)O)nn3)c12 [Compound 03C01]", "rule met"),
    ("O=c1[nH]cnc2[nH]cc(-c3cn(Cc4ccc(F)cc4)nn3)c12 [Compound 03E04]", "rule met"),
    ("Cc1ccc(-n2cc(-c3c[nH]c4nc[nH]c(=O)c34)nn2)nc1 [Compound 03F10]", "rule not met"),
    ("Cn1cc(-n2cc(-c3c[nH]c4nc[nH]c(=O)c34)nn2)cn1 [Compound 01E10]", "rule not met"),
    ("O=c1[nH]cnc2[nH]cc(-c3cn([C@@H]4C[C@H]5CC[C@@H](C4)N5)nn3)c12 [Compound 01G10]", "rule met"),
    ("Cc1nc(C)c(Cn2cc(-c3c[nH]c4nc[nH]c(=O)c34)nn2)o1 [Compound 03B08]", "rule met"),
    ("Cc1cc(F)ccc1[C@H](C)n1cc(-c2c[nH]c3nc[nH]c(=O)c23)nn1 [Compound 03F07]", "rule met"),
    ("N#Cc1cnn(CCn2cc(-c3c[nH]c4nc[nH]c(=O)c34)nn2)c1 [Compound 02G10]", "rule met"),
    ("N#Cc1ccc(Cn2cc(-c3c[nH]c4nc[nH]c(=O)c34)nn2)c(F)c1 [Compound 01A01]", "rule not met"),
    ("O=c1[nH]cnc2[nH]cc(-c3cn(-c4ccc(OC(F)(F)F)c(Cl)c4)nn3)c12 [Compound 01B11]", "rule not met"),
    ("O=c1[nH]cnc2[nH]cc(-c3cn([C@H]4CCCNC4)nn3)c12 [Compound 01B01]", "rule met"),
    ("O=c1[nH]cnc2[nH]cc(-c3cn(C[C@H]4CCCNC4)nn3)c12 [Compound 03H01]", "rule met"),
    ("NS(=O)(=O)c1ccc(-n2cc(-c3c[nH]c4nc[nH]c(=O)c34)nn2)cc1 [Compound 02B06]", "rule not met"),
    ("O=c1[nH]cnc2[nH]cc(-c3cn([C@H]4CC[C@@H]4O)nn3)c12 [Compound 01D04]", "rule met"),
    ("O=c1[nH]cnc2[nH]cc(-c3cn(-c4ccccc4Cl)nn3)c12 [Compound 02F03]", "rule met"),
    ("O=c1[nH]cnc2[nH]cc(-c3cn(Cc4cc(-c5ccco5)on4)nn3)c12 [Compound 03B03]", "rule met"),
]

###

# inhibition at 1 µM listing for each entry below
assayed_target: S. aureus TrmD (Staphylococcus aureus)
Construct: made in house; host or cells: E. coli BL21
Sequence (Q2FZ43 1-245): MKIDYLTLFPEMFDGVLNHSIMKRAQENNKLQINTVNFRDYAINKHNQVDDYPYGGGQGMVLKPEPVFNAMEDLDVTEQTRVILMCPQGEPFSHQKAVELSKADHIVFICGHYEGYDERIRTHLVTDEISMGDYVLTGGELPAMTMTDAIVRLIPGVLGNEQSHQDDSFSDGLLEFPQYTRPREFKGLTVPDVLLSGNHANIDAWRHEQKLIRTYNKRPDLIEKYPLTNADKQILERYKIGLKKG
test_method_notes: nanoSAR direct-to-biology FP displacement screening of crude triazoles
Format: binding
measurement_conditions: crude triazole at 1 μM, assuming full conversion; 500 nM TrmD, 10 nM tracer 4; read-out: % displaced tracer
Protocol: Next, we conducted an S. aureus TrmD-targeting nanoSAR study. For this, alkyne 7 was reacted on a 96 nmol scale with an in-house diversity-oriented azide library (N = 320, mean pairwise Tanimoto similarity = 0.11) designed to cover a large chemical fragment space, generating a panel of 320 crude triazoles ready for FP assay investigation. […] Fluorescence polarization (FP) assays were performed as follows. […]
readout_name: inhibition at 1 µM (%)

# compound, val
records = [
    ("O=c1[nH]cnc2[nH]cc(-c3cn([C@@H]4C[C@H]5CCC[C@@H](C4)N5)nn3)c12 [Compound 01A08]", 38),
    ("O=c1[nH]cnc2[nH]cc(-c3cn(CCn4ccccc4=O)nn3)c12 [Compound 01C11]", 52),
    ("COc1ccnc(-n2cc(-c3c[nH]c4nc[nH]c(=O)c34)nn2)n1 [Compound 02A01]", 19),
    ("O=c1[nH]cnc2[nH]cc(-c3cn(-c4ccc(-c5ccccc5)cc4)nn3)c12 [Compound 02B05]", 3),
]

###

assayed_target: S. aureus TrmD (Staphylococcus aureus, UniProt Q2FZ43)
Construct: made in house; host or cells: E. coli BL21
test_method_notes: nanoSAR direct-to-biology FP displacement screening of crude triazoles
Format: binding
measurement_conditions: crude triazole at 1 μM, assuming full conversion; 500 nM TrmD, 10 nM tracer 4; read-out: % displaced tracer
Parameter threshold = 40%. Response is Met when inhibition at 1 µM meets or exceeds it, else Not met.

# structure_as_smiles, assayed_target, class_name
rows = [
    ("O=c1[nH]cnc2[nH]cc(-c3cn(CCCc4ccccc4)nn3)c12", "S. aureus TrmD (Staphylococcus aureus, UniProt Q2FZ43)", "Met"),
    ("O=c1[nH]cnc2[nH]cc(-c3cn(-c4cc(F)cc(Cl)c4)nn3)c12", "S. aureus TrmD (Staphylococcus aureus, UniProt Q2FZ43)", "Not met"),
    ("CCC1(Cn2cc(-c3c[nH]c4nc[nH]c(=O)c34)nn2)COC1", "S. aureus TrmD (Staphylococcus aureus, UniProt Q2FZ43)", "Met"),
    ("O=c1[nH]cnc2[nH]cc(-c3cn(C4CC4)nn3)c12", "S. aureus TrmD (Staphylococcus aureus, UniProt Q2FZ43)", "Not met"),
    ("O=C(Cn1cc(-c2c[nH]c3nc[nH]c(=O)c23)nn1)NCc1ccccc1", "S. aureus TrmD (Staphylococcus aureus, UniProt Q2FZ43)", "Not met"),
    ("CN(C)CCn1cc(-c2c[nH]c3nc[nH]c(=O)c23)nn1", "S. aureus TrmD (Staphylococcus aureus, UniProt Q2FZ43)", "Met"),
    ("O=c1[nH]cnc2[nH]cc(-c3cn(-c4ccc5c(c4)CCO5)nn3)c12", "S. aureus TrmD (Staphylococcus aureus, UniProt Q2FZ43)", "Met"),
    ("C[C@@H]1CNC[C@H]1n1cc(-c2c[nH]c3nc[nH]c(=O)c23)nn1", "S. aureus TrmD (Staphylococcus aureus, UniProt Q2FZ43)", "Not met"),
    ("O=c1[nH]cnc2[nH]cc(-c3cn(C[C@H]4COc5ccccc5O4)nn3)c12", "S. aureus TrmD (Staphylococcus aureus, UniProt Q2FZ43)", "Met"),
    ("Cn1nncc1-n1cc(-c2c[nH]c3nc[nH]c(=O)c23)nn1", "S. aureus TrmD (Staphylococcus aureus, UniProt Q2FZ43)", "Met"),
    ("O=C(c1ccco1)n1cc(-c2c[nH]c3nc[nH]c(=O)c23)nn1", "S. aureus TrmD (Staphylococcus aureus, UniProt Q2FZ43)", "Not met"),
    ("O=c1[nH]cnc2[nH]cc(-c3cn([C@@H]4CCOC5(CCNCC5)C4)nn3)c12", "S. aureus TrmD (Staphylococcus aureus, UniProt Q2FZ43)", "Not met"),
    ("O=c1[nH]cnc2[nH]cc(-c3cn(Cc4nc5ccccc5o4)nn3)c12", "S. aureus TrmD (Staphylococcus aureus, UniProt Q2FZ43)", "Not met"),
    ("N#CCC1(Cn2cc(-c3c[nH]c4nc[nH]c(=O)c34)nn2)CC1", "S. aureus TrmD (Staphylococcus aureus, UniProt Q2FZ43)", "Met"),
    ("O=c1[nH]cnc2[nH]cc(-c3cn(CCc4ccccn4)nn3)c12", "S. aureus TrmD (Staphylococcus aureus, UniProt Q2FZ43)", "Met"),
]

src = paper PMC12751012
